Molecular target: C-X-C chemokine receptor type 2 (Homo sapiens, UniProt P25025)
Sequence (P25025 whole entry): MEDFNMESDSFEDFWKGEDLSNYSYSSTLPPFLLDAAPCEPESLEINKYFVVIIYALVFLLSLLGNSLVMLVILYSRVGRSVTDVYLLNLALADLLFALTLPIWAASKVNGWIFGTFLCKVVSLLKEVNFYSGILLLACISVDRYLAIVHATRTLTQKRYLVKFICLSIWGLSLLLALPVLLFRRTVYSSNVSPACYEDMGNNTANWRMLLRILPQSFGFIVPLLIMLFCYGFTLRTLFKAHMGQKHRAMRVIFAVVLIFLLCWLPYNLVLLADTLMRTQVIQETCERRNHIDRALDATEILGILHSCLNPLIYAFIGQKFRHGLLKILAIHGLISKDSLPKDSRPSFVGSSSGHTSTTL
Test: Antagonist activity at CXCR2 in human CD4 cells by fluorescence based calcium mobilization assay
PROPERTY: IC50 (µM)

INSERT INTO assay_data (compound, system, qual, result_number) VALUES
  ('Fc1cccc(CSc2nc(NCC3CC3)c3nn[nH]c3n2)c1F', 'C-X-C chemokine receptor type 2 (Homo sapiens, UniProt P25025)', '=', 2.98),
  ('C[C@H](CCO)Nc1nc(SCc2cccc(F)c2F)nc2[nH]nnc12', 'C-X-C chemokine receptor type 2 (Homo sapiens, UniProt P25025)', '=', 2.09),
  ('Fc1cccc(CSc2nc(N3CCNCC3)c3nn[nH]c3n2)c1F', 'C-X-C chemokine receptor type 2 (Homo sapiens, UniProt P25025)', '>', 30),
  ('COCCNc1nc(SCc2cccc(F)c2F)nc2[nH]nnc12', 'C-X-C chemokine receptor type 2 (Homo sapiens, UniProt P25025)', '=', 8.78),
  ('CCCNC(=O)CSc1nc(N[C@H](C)CO)c2nn[nH]c2n1', 'C-X-C chemokine receptor type 2 (Homo sapiens, UniProt P25025)', '>', 30),
  ('CCCC(C)CSc1nc(N[C@H](C)CO)c2nn[nH]c2n1 (some centres not stated)', 'C-X-C chemokine receptor type 2 (Homo sapiens, UniProt P25025)', '=', 2.58),
  ('CC(C)(C)OC(=O)N1CCN(c2nc(SCc3cccc(F)c3F)nc3[nH]nnc23)CC1', 'C-X-C chemokine receptor type 2 (Homo sapiens, UniProt P25025)', '=', 11.5),
  ('C[C@@H](CO)Nc1nc(SCc2cccc(F)c2F)nc2[nH]nnc12', 'C-X-C chemokine receptor type 2 (Homo sapiens, UniProt P25025)', '=', 1.75),
  ('Cc1ccc([C@H](NC2=NS(=O)(=O)N=C2Nc2ccc(C)c(C(=O)N(C)C)c2O)C(C)(C)C)o1', 'C-X-C chemokine receptor type 2 (Homo sapiens, UniProt P25025)', '=', 6.4),
  ('C[C@H](CO)Nc1nc(SCC2CCCC2)nc2[nH]nnc12', 'C-X-C chemokine receptor type 2 (Homo sapiens, UniProt P25025)', '=', 2.37),
  ('CN(C)CCNc1nc(SCc2cccc(F)c2F)nc2[nH]nnc12', 'C-X-C chemokine receptor type 2 (Homo sapiens, UniProt P25025)', '>', 30),
  ('C[C@H](CO)Nc1nc(SC2CCCCC2)nc2[nH]nnc12', 'C-X-C chemokine receptor type 2 (Homo sapiens, UniProt P25025)', '>', 30);

====

Consider the following compounds and their measured IC50 readings.
Molecular target: C-C chemokine receptor type 7 (Homo sapiens, UniProt P32248)
Sequence (P32248 whole entry): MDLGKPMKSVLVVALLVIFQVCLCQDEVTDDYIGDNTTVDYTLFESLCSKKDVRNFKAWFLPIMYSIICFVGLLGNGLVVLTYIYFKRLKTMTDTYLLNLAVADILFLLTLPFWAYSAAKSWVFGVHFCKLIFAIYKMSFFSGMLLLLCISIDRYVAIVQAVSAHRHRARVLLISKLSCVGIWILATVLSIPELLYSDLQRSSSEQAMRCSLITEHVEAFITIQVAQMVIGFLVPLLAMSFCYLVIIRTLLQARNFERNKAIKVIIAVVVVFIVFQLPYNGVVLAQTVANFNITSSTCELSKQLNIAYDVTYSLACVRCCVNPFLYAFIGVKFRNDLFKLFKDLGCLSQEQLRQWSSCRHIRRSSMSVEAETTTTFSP
Assay: Antagonist activity at CCR7 in human CD4 cells by fluorescence based calcium mobilization assay
Assay type: functional, cell-based, CD4+ve Th
PROPERTY: IC50 (µM)

INSERT INTO assay_data (compound, system, property, qual, result_number) VALUES
  ('COCCNc1nc(SCc2cccc(F)c2F)nc2[nH]nnc12', 'C-C chemokine receptor type 7 (Homo sapiens, UniProt P32248)', 'IC50', '=', 17.2),
  ('CCCOCCSc1nc(N[C@H](C)CO)c2nn[nH]c2n1', 'C-C chemokine receptor type 7 (Homo sapiens, UniProt P32248)', 'IC50', '=', 29.3),
  ('C[C@H](CO)Nc1nc(SCCC2CCCCC2)nc2[nH]nnc12', 'C-C chemokine receptor type 7 (Homo sapiens, UniProt P32248)', 'IC50', '=', 1.68),
  ('Fc1cccc(CSc2nc(N3CCNCC3)c3nn[nH]c3n2)c1F', 'C-C chemokine receptor type 7 (Homo sapiens, UniProt P32248)', 'IC50', '>', 30),
  ('C[C@H](CO)Nc1nc(OCc2cccc(F)c2F)nc2[nH]nnc12', 'C-C chemokine receptor type 7 (Homo sapiens, UniProt P32248)', 'IC50', '=', 23.8),
  ('CC(C)(CO)Nc1nc(SCc2cccc(F)c2F)nc2[nH]nnc12', 'C-C chemokine receptor type 7 (Homo sapiens, UniProt P32248)', 'IC50', '=', 2.29),
  ('CC(C)CCCCSc1nc(N[C@H](C)CO)c2nn[nH]c2n1', 'C-C chemokine receptor type 7 (Homo sapiens, UniProt P32248)', 'IC50', '=', 5.28),
  ('C[C@H](CO)Nc1nc(SCc2cccc(F)c2F)nc2c1nnn2C', 'C-C chemokine receptor type 7 (Homo sapiens, UniProt P32248)', 'IC50', '>', 30),
  ('C[C@H](CO)Nc1nc(SCCc2ccccc2)nc2[nH]nnc12', 'C-C chemokine receptor type 7 (Homo sapiens, UniProt P32248)', 'IC50', '=', 1.18),
  ('C[C@H](CO)Nc1nc(SCc2cccc(F)c2F)nc2cc[nH]c12', 'C-C chemokine receptor type 7 (Homo sapiens, UniProt P32248)', 'IC50', '>', 30),
  ('CN(C)c1nc(SCc2cccc(F)c2F)nc2[nH]nnc12', 'C-C chemokine receptor type 7 (Homo sapiens, UniProt P32248)', 'IC50', '>', 30),
  ('C[C@H](CO)Nc1nc(SCc2cccc(F)c2F)nc2cnccc12', 'C-C chemokine receptor type 7 (Homo sapiens, UniProt P32248)', 'IC50', '>', 30),
  ('CN(C)CCNc1nc(SCc2cccc(F)c2F)nc2[nH]nnc12', 'C-C chemokine receptor type 7 (Homo sapiens, UniProt P32248)', 'IC50', '>', 30),
  ('OCCSc1nc(SCc2cccc(F)c2F)nc2[nH]nnc12', 'C-C chemokine receptor type 7 (Homo sapiens, UniProt P32248)', 'IC50', '=', 5.81),
  ('CCCC(C)CSc1nc(N[C@H](C)CO)c2nn[nH]c2n1 (some centres undefined)', 'C-C chemokine receptor type 7 (Homo sapiens, UniProt P32248)', 'IC50', '=', 8.49),
  ('OCCCNc1nc(SCc2cccc(F)c2F)nc2[nH]nnc12', 'C-C chemokine receptor type 7 (Homo sapiens, UniProt P32248)', 'IC50', '=', 18.6),
  ('OCCNc1nc(SCc2cccc(F)c2F)nc2[nH]nnc12', 'C-C chemokine receptor type 7 (Homo sapiens, UniProt P32248)', 'IC50', '=', 8.66),
  ('CC(C)(C)OC(=O)N1CCN(c2nc(SCc3cccc(F)c3F)nc3[nH]nnc23)CC1', 'C-C chemokine receptor type 7 (Homo sapiens, UniProt P32248)', 'IC50', '>', 30),
  ('C[C@H](CO)Nc1nc(SCc2cccc(F)c2F)nc2c1CNCC2', 'C-C chemokine receptor type 7 (Homo sapiens, UniProt P32248)', 'IC50', '>', 30),
  ('C[C@H](CO)Nc1nc(SCc2cccc(F)c2F)nc2sccc12', 'C-C chemokine receptor type 7 (Homo sapiens, UniProt P32248)', 'IC50', '>', 30),
  ('C[C@H](CCO)Nc1nc(SCc2cccc(F)c2F)nc2[nH]nnc12', 'C-C chemokine receptor type 7 (Homo sapiens, UniProt P32248)', 'IC50', '=', 7.14),
  ('C[C@H](CO)Nc1nc(SCc2cccc(F)c2F)nc2ccsc12', 'C-C chemokine receptor type 7 (Homo sapiens, UniProt P32248)', 'IC50', '>', 30),
  ('C[C@H](CO)Nc1nc(Sc2ccccc2)nc2[nH]nnc12', 'C-C chemokine receptor type 7 (Homo sapiens, UniProt P32248)', 'IC50', '>', 30),
  ('CCCCCCSc1nc(N[C@H](C)CO)c2nn[nH]c2n1', 'C-C chemokine receptor type 7 (Homo sapiens, UniProt P32248)', 'IC50', '=', 0.43);
